B1: library; numbered along this chain (parent)
chain: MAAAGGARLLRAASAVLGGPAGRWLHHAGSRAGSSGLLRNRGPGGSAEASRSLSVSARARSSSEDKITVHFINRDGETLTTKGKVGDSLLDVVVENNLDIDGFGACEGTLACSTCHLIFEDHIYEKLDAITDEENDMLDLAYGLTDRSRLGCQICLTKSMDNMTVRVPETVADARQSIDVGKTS

- Variants of: B1
- experiment-notes: scaled log2 fold change in cell abundance, elesclomol vs control (0 = silent mean, 1 = nonsense mean) (scaled log2 ratio); higher = higher viability under elesclomol (loss of FDX1 cuproptosis function);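 also: variant abundance is its share of total variant reads in each endpoint sample, from next-generation sequencing of the integrated ORF PCR-amplified out of genomic DNA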
- test-parameters: with ABC1 FDX1 KO; elesclomol 5 nM; glucose 10 mM; 14 days
scaled log2 fold change values, listed per item
Simply state the number, no unit and no words.

Any idea what its scaled log2 fold change is? The variant is "G29C"
0.0521

Note, next up: "C106Y"
1.17
